Origin of values: patent US20120121587A1

Biological target: T1, Human recombinant AXL-FND1 (GST-FND1), from pET-41b(+) (human, UniProt P30530 225-331)
T1 construct: Expressed in E. coli, purified on Glutathione Sepharose; analyte in all Biacore measurements; GST put first by the usual layout of pET-41; not shown: GST-tag of vector pET-41b(+) (Novagen)
T1 sequence (looked up): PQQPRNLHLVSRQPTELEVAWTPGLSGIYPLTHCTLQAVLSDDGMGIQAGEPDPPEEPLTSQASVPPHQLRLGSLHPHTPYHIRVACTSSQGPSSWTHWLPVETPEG
Assay: SPR (Biacore T100): antibody captured on Protein A, GST-FND1 as analyte
metric: pKd
The quantity pKd is defined as the negative base-10 logarithm of the molar concentration.

Answered examples (3):
1) H37/L0 (antibody, human IgG1, kappa, V domains shown) VH: QVTLKESGPVLVKPTETLTLTCTVSGFSLSSFGVDWVRQAPGKGLEWMGVIWGGGSTNYNRALKSRLTISKDNSKSQVVLTMTNMDPVDTATYYCAGEGSKYGAWFAYWGQGTLVTVSS VL: DVVMTQSPLSLPVTLGQPASISCRSSQNIVHTNGNTYLEWYQQKPGKAPELLIYKVSNRFSGVPDRFSGSGSGTDFTLKISRVEAEDVGVYYCFQGSHIPFTFGQGTKLEIKR :: 8.53
2) H21/L0 (antibody, human IgG1, kappa, V domains shown) VH: QVTLKESGPVLVKPTETLTLTCTVSGFSLSSFGVDWVRQAPGKGLEWMGVIWGGGSTNYNEALKSRLTISKDNSKSQVVLTMTNMDPVDTATYYCAGEGSKYGAWFAYWGQGTLVTVSS VL: DVVMTQSPLSLPVTLGQPASISCRSSQNIVHTNGNTYLEWYQQKPGKAPELLIYKVSNRFSGVPDRFSGSGSGTDFTLKISRVEAEDVGVYYCFQGSHIPFTFGQGTKLEIKR :: 8.63
3) H33/L13 (antibody, human IgG1, kappa, V domains shown) VH: QVTLKESGPVLVKPTETLTLTCTVSGFSLSSFGVDWVRQAPGQGLEWMGVIWGGGSTNYNEALQDRLTISKDNSKSQVVLTMTNMDPVDTATYYCAGEGSKYGAWFAYWGEGTLVTVSS VL: DVVMTQSPLSLPVTLGQPASISCQSSQNIVHTNGNTYLEWYQQKPGQAPELLIYKVSNRFSGVPDRFSGSGSGTDFTLKISRVEAEDVGVYYCFQGSHIPFTFGQGTKVEIER :: 8.52

API: the following record is the query input.
Would you mind telling me what pKd value was observed for H22/L0 (antibody, human IgG1, kappa, V domains shown) VH: QVTLKESGPVLVKPTETLTLTCTVSGFSLSSFGVDWVRQAPGKGLEWMGVIWGGGSTNYNSELKSRLTISKDNSKSQVVLTMTNMDPVDTATYYCAGEGSKYGAWFAYWGQGTLVTVSS VL: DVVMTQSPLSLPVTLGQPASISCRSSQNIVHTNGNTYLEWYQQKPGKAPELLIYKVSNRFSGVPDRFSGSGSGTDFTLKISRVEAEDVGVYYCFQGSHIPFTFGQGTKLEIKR ? 8.50
